- protocol.details: MTT cell viability assay (cytotoxicity) in J774 macrophages
- Assay type: cell-based, murine
- applied.conditions: mouse; J774 macrophages, 20 μM, 24 h, MTT, mean ± SD, n = 3; read-out: Cell viability (%) J774 macrophages 20 μM
property.name: viability at 24 h, 20 µM (%)
A number alone suffices; assume %.

Please report viability at 24 h, 20 µM for the following compound: CCCCCCCCCCCC1=C(O)C(=O)C=C(O)C1=O [Compound 1, embelin] 15.3

---

- protocol.details: MTT cell viability assay (cytotoxicity) in J774 macrophages
- Assay type: cell-based, murine
- applied.conditions: mouse
The threshold is 60%. Values of viability at 24 h, 10 µM beneath it are tagged Yes; values meeting or exceeding it are tagged No.

Please determine if CCCCCCCCCCCC1=C(O)C(=O)C2=C(Nc3cc(C)cc(C)c3C2c2ccc([N+](=O)[O-])cc2)C1=O (stereo not drawn) is below 60% in terms of viability at 24 h, 10 µM. Yes

Record CCCCCCCCCCCC1=C(O)C(=O)C2=C(Nc3ccc(OC)cc3C2c2ccc([N+](=O)[O-])cc2)C1=O (stereo not drawn) : is its viability at 24 h, 10 µM strictly below 60%? Yes

Please let me know if `CCCCCCCCCCCC1=C(O)C(=O)c2c(nc3ccccc3c2-c2ccsc2)C1=O` shows viability at 24 h, 10 µM below 60%. No

Does CCCCCCCCCCCC1=C(O)C(=O)C2=C(Nc3ccccc3C2c2ccc(C)c(C)c2)C1=O (stereo not drawn) have viability at 24 h, 10 µM strictly under 60%? No

Confirm or reject: viability at 24 h, 10 µM of CCCCCCCCCCCC1=C(O)C(=O)C2=C(Nc3ccccc3C2c2ccc(Br)cc2)C1=O (stereo not drawn) lies strictly below 60% Yes

Below 60% on viability at 24 h, 10 µM? Entry CCCCCCCCCCCC1=C(O)C(=O)C2=C(Nc3ccccc3C2c2cccc(F)c2)C1=O (stereo not drawn) No

---

Field: viability at 24 h, 10 µM. Provide a value for each of the compounds that follow.
- protocol.details: MTT cell viability assay (cytotoxicity) in J774 macrophages
- Format: cell-based, murine
- applied.conditions: mouse
# unit: % | format: bare number

Supply reported viability at 24 h, 10 µM belonging to this compound: CCCCCCCCCCCC1=C(O)C(=O)C2=C(Nc3ccccc3C2c2ccc(F)cc2)C1=O (centres unmarked) 57.3

Please supply the value of reported viability at 24 h, 10 µM for the item CCCCCCCCCCCC1=C(O)C(=O)C2=C(Nc3ccccc3C2c2ccsc2)C1=O (centres unmarked) 84.9

Give reported viability at 24 h, 10 µM value for `CCCCCCCCCCCC1=C(O)C(=O)C=C(Nc2ccc(Br)cc2)C1=O` 56.9

Quickly give me recorded viability at 24 h, 10 µM for CCCCCCCCCCCC1=C(O)C(=O)C2=C(Nc3ccccc3C2c2ccc(C(=O)OC)cc2)C1=O (centres unmarked) 31.2

State its viability at 24 h, 10 µM: `CCCCCCCCCCCC1=C(O)C(=O)c2c(nc3ccccc3c2-c2ccc(Br)cc2)C1=O` 82.1

Find the measured viability at 24 h, 10 µM of `CCCCCCCCCCCC1=C(O)C(=O)c2c(nc3ccccc3c2-c2ccc(OC)c(OC)c2)C1=O` and report it. 85.2

Hello, please tell me recorded viability at 24 h, 10 µM for this one: CCCCCCCCCCCC1=C(O)C(=O)C2=C(Nc3ccccc3C2c2ccc([N+](=O)[O-])cc2)C1=O (centres unmarked) 50

Answer with the recorded viability at 24 h, 10 µM for the compound listed here: `CCCCCCCCCCCC1=C(O)C(=O)C=C(Nc2cccc([N+](=O)[O-])c2)C1=O` 65.5

Data provenance is paper PMC9972480.
